B1: HEEH_KT_rd6_3546 (parent)
chain: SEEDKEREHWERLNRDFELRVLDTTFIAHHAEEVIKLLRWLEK

# Variants of: B1
# assay.method.text: folding stability dG (cDNA display proteolysis); higher = more stable
# experimental.parameters: PBS, room temperature
# folding stability dG >= 1 kcal/mol gives satisfied, anything below gives not satisfied

| polymer.sequence | class |
| --- | --- |
| SEEDKEREHWERLNRDFEYRVLDTTFIAHHAEEVIKLLRWLEK [L19Y] | satisfied |
| SEEDKEREHWERLNRDFELRVLDTTFIAHHAEEVIKLLRWLEW [K43W] | satisfied |
| SEEDKEREHWERLNRDFELRVLDTTTIAHHAEEVIKLLRWLEK [F26T] | not satisfied |
| SEEDKEREHWERLNRDFEARVLDTTFIAHHAEEVIKLLRWLEK [L19A] | not satisfied |
| SEEDKEREHWERLNRDFELRVLDTTFIAHHAEEVIKLLRWLRK [E42R] | satisfied |
| SEEDKERNHWERLNRDFELRVLDTTFIAHHAEEVIKLLRWLEK [E8N] | satisfied |
| SEEDKEREHWERLNRDFELEVLDTTFIAHHAEEVIKLLRWLEK [R20E] | not satisfied |
| SEEDKEREHWEHLNRDFELRVLDTTFIAHHAEEVIKLLRWLEK [R12H] | satisfied |
| SEEDKEREHWERLNRDFELRVLDTTFIAHHAEEVQKLLRWLEK [I35Q] | not satisfied |
| SEEWKEREHWERLNRDFELRVLDTTFIAHHAEEVIKLLRWLEK [D4W] | satisfied |
| SEEDKEREHWERLNRDFELRVLDTTFITHHAEEVIKLLRWLEK [A28T] | satisfied |
| SEEDAEREHWERLNRDFELRVLDTTFIAHHAEEVIKLLRWLEK [K5A] | satisfied |
| SEEDKEREHWERLNRDFELRVADTTFIAHHAEEVIKLLRWLEK [L22A] | satisfied |
| SEKDKEREHWERLNRDFELRVLDTTFIAHHAEEVIKLLRWLEK [E3K] | satisfied |
| SEEDKEREHWERLNRDFELRVLDTTFIAHHAEEVIKLLRSLEK [W40S] | not satisfied |
| SEEDKEREHWERLNRDFELRVLDTTFIAHHAEFVIKLLRWLEK [E33F] | satisfied |
| SEEDKEREHWEKLNRDFELRVLDTTFIAHHAEEVIKLLRWLEK [R12K] | satisfied |
| SEEDKEREHWERLNRDFELRVLDTTFIAHHAKEVIKLLRWLEK [E32K] | satisfied |
| SEEDKEREHWERLNRDFELRVLDTTFIAHHAEEVDKLLRWLEK [I35D] | not satisfied |
| SEEDKEREHWERLNRDFELRHLDTTFIAHHAEEVIKLLRWLEK [V21H] | satisfied |
| SEEDKEREHWERLNRDFELRVLDTTFIAHHTEEVIKLLRWLEK [A31T] | satisfied |
| SEEDKEREHWERLNRDFELRVLDTTFIAHHAEEVITLLRWLEK [K36T] | satisfied |
| SEEDKEREHWERLNRDFELRVLDTTFIAHHAEIVIKLLRWLEK [E33I] | satisfied |
| SEEDKEREHWIRLNRDFELRVLDTTFIAHHAEEVIKLLRWLEK [E11I] | satisfied |
| SEEDKEREHWERLNRDFELRVLDTTFIAHHAEEVPKLLRWLEK [I35P] | not satisfied |
| SEEDKEREHWERLNRDFELRVLDTTFIAHHAEEVIKLLRWLER [K43R] | satisfied |
| SEEDKEREHWERLNRDFELRVLDTAFIAHHAEEVIKLLRWLEK [T25A] | satisfied |
| SEEDKEREHWERLNRDFELRVLDTTFIAHHAEEVIALLRWLEK [K36A] | satisfied |
| SEEDKEREHWERLNRDFELRVLDTTFIAHHAAEVIKLLRWLEK [E32A] | satisfied |
| SEEDKGREHWERLNRDFELRVLDTTFIAHHAEEVIKLLRWLEK [E6G] | satisfied |
| SEEDKEREHWERLNRDFELRVLDTTFIAHHAEEVGKLLRWLEK [I35G] | not satisfied |
| SEEDKEREHWERLNRDFELRVLDTTFIAHHLEEVIKLLRWLEK [A31L] | satisfied |
| SEEDKEREHWERLNRDFELRVLDTTFIARHAEEVIKLLRWLEK [H29R] | satisfied |
| SEPDKEREHWERLNRDFELRVLDTTFIAHHAEEVIKLLRWLEK [E3P] | satisfied |
| SEEDKCREHWERLNRDFELRVLDTTFIAHHAEEVIKLLRWLEK [E6C] | satisfied |
| SEEDKEREHWERLNRDFELRVLDTTFLAHHAEEVIKLLRWLEK [I27L] | satisfied |
| SEEDKEREHWERLNADFELRVLDTTFIAHHAEEVIKLLRWLEK [R15A] | satisfied |
| SEEDKEREHWERLNRDFELRVLDATFIAHHAEEVIKLLRWLEK [T24A] | satisfied |
| SLEDKEREHWERLNRDFELRVLDTTFIAHHAEEVIKLLRWLEK [E2L] | satisfied |
| SEEDKEREHWERLNRDLELRVLDTTFIAHHAEEVIKLLRWLEK [F17L] | satisfied |
| SEEDKEREHWERLNRDFELRVLDTTQIAHHAEEVIKLLRWLEK [F26Q] | not satisfied |
| SEEDKEREHWERLFRDFELRVLDTTFIAHHAEEVIKLLRWLEK [N14F] | satisfied |
| SEEDKEREHWERLNRDFELRVLDTTFIAHHAEEVIKLLRVLEK [W40V] | not satisfied |
| SEEDKEREHWERLQRDFELRVLDTTFIAHHAEEVIKLLRWLEK [N14Q] | satisfied |
| SEEDKEREHMERLNRDFELRVLDTTFIAHHAEEVIKLLRWLEK [W10M] | satisfied |
| SEEDKEREHWERFNRDFELRVLDTTFIAHHAEEVIKLLRWLEK [L13F] | satisfied |
| SEELKEREHWERLNRDFELRVLDTTFIAHHAEEVIKLLRWLEK [D4L] | satisfied |
| SEEDKEREHWERLNRDFELRVLDTTFAAHHAEEVIKLLRWLEK [I27A] | not satisfied |
| SEVDKEREHWERLNRDFELRVLDTTFIAHHAEEVIKLLRWLEK [E3V] | satisfied |
| SEEDKEREHWERLNRDFELRVLDTMFIAHHAEEVIKLLRWLEK [T25M] | satisfied |
| SEEDKEREHGERLNRDFELRVLDTTFIAHHAEEVIKLLRWLEK [W10G] | satisfied |
| SEEDKEREHWERLNRDEELRVLDTTFIAHHAEEVIKLLRWLEK [F17E] | not satisfied |
| SEEDKEREHWERLNRDFELRVLDTTFIAHHAEEFIKLLRWLEK [V34F] | satisfied |
| SEEDKEREHWFRLNRDFELRVLDTTFIAHHAEEVIKLLRWLEK [E11F] | satisfied |
| SEEDKEREFWERLNRDFELRVLDTTFIAHHAEEVIKLLRWLEK [H9F] | satisfied |
| SEEDKEREHWERLNRDFELRVLDTTFIAHHAEEVIKLLRWLVK [E42V] | satisfied |
| SEEDKEREHWERLRRDFELRVLDTTFIAHHAEEVIKLLRWLEK [N14R] | satisfied |
| SREDKEREHWERLNRDFELRVLDTTFIAHHAEEVIKLLRWLEK [E2R] | satisfied |
| STEDKEREHWERLNRDFELRVLDTTFIAHHAEEVIKLLRWLEK [E2T] | satisfied |
| SEEDKEREHWERLNRDFELRVLDTTFIAHHAEEVIKLLRWTEK [L41T] | not satisfied |
| SEEDKEREHWERLNNDFELRVLDTTFIAHHAEEVIKLLRWLEK [R15N] | satisfied |
| SEEDKEREHWERLNRDFELHVLDTTFIAHHAEEVIKLLRWLEK [R20H] | satisfied |
| SEEDKEREHWERLNRDFELRVLDTTFIAHHAEEKIKLLRWLEK [V34K] | not satisfied |
| SEYDKEREHWERLNRDFELRVLDTTFIAHHAEEVIKLLRWLEK [E3Y] | satisfied |
| SEEDKEREHWERLNRDFELRVLDTTFIAHHAEEVIKLLRWLEF [K43F] | satisfied |
| SEEDKEREHWERLNRDFELRVLDTHFIAHHAEEVIKLLRWLEK [T25H] | satisfied |
| SEEDKEREHWERLNRDFELRVLDTTFIAHDAEEVIKLLRWLEK [H30D] | not satisfied |
| SEEDKEREHWEILNRDFELRVLDTTFIAHHAEEVIKLLRWLEK [R12I] | satisfied |
| SEEDKEREHWERLNRDFELRVLDTTFIAHHAEEVIKLLDWLEK [R39D] | not satisfied |
| SEEDKEREHWERLNRDIELRVLDTTFIAHHAEEVIKLLRWLEK [F17I] | satisfied |
| SEEDKEREHWERLNRDFELRVLDTTFIAHHAEEVIKLLRWPEK [L41P] | not satisfied |
| SEEDKEREHWERLNRDFELRVLDTTFIAHHAMEVIKLLRWLEK [E32M] | satisfied |
| SEEDKEREHWERLNRDFELRVLDTTFIAHHAEEVIKLLRKLEK [W40K] | not satisfied |
| SEEDKEREHWERLNRDFEQRVLDTTFIAHHAEEVIKLLRWLEK [L19Q] | not satisfied |
| SEEDKEREHWERLNRDFELRVLDTTPIAHHAEEVIKLLRWLEK [F26P] | not satisfied |
| SEEDKERVHWERLNRDFELRVLDTTFIAHHAEEVIKLLRWLEK [E8V] | satisfied |
| SEEDKEREHWERLNRDFELRVLDTRFIAHHAEEVIKLLRWLEK [T25R] | satisfied |
| SEEDKEREHWERLNRDFELRVLWTTFIAHHAEEVIKLLRWLEK [D23W] | satisfied |
| SEEDKEREHWERLNRDFELRVLDTTFIAHHAEEIIKLLRWLEK [V34I] | satisfied |
| SEEDKEREHWERLNRIFELRVLDTTFIAHHAEEVIKLLRWLEK [D16I] | satisfied |
| SEEDKEREHWERLNRDFELRWLDTTFIAHHAEEVIKLLRWLEK [V21W] | satisfied |
| SEEDKEREHWERLNRDFELRKLDTTFIAHHAEEVIKLLRWLEK [V21K] | satisfied |
| SEEDKEREHWERLNRDFELRVFDTTFIAHHAEEVIKLLRWLEK [L22F] | satisfied |
| SEEDKEREHWERLNRDFEKRVLDTTFIAHHAEEVIKLLRWLEK [L19K] | not satisfied |
| SEEDKEDEHWERLNRDFELRVLDTTFIAHHAEEVIKLLRWLEK [R7D] | satisfied |
| SEEDKPREHWERLNRDFELRVLDTTFIAHHAEEVIKLLRWLEK [E6P] | satisfied |
| SEEDKEREHWERLNRDFALRVLDTTFIAHHAEEVIKLLRWLEK [E18A] | satisfied |
| SEEDKEREHWERHNRDFELRVLDTTFIAHHAEEVIKLLRWLEK [L13H] | satisfied |
| SEEDKEREHWERLNRDFLLRVLDTTFIAHHAEEVIKLLRWLEK [E18L] | satisfied |
